Overview of reported pEC50 across a group of compounds:
# Protocol: Lactate dehydrogenase (LDH) release assay
# Format: cell-based
# Conditions used: LDH: Cytotoxicity assay EC50
pEC50: −log10 of the molar value. Positions of bridges follow the written chain, without caps; N, C: chain ends. Non-standard residues stand in square brackets, D forms with d. Residues, ends and D or L forms follow the SMILES beside them. R8 = C=CCCCCCC[C@@](C)(N)C(=O)O; Cba = N[C@@H](CC1CCC1)C(=O)O; S5 = C=CCCC[C@](C)(N)C(=O)O

INSERT INTO assay_data (compound, assay_result) VALUES
  ('CC(=O)N[C@@H](CCCCN=[N+]=[N-])C(=O)NCCC(=O)N[C@@H](CCC(=O)O)C(=O)N[C@H](C(=O)N[C@@H](Cc1ccccc1)C(=O)N[C@]1(C)CCCCCCC=CCCC[C@@](C)(C(=O)N[C@@H](CO)C(=O)N[C@@H](C)C(=O)N[C@@H](C)C(N)=O)NC(=O)[C@H](CC2CCC2)NC(=O)[C@H](CCC(N)=O)NC(=O)[C@H](C)NC(=O)[C@H](Cc2c[nH]c3ccccc23)NC(=O)[C@H](Cc2ccc(O)cc2)NC(=O)[C@H](CCC(=O)O)NC1=O)[C@@H](C)O [MP-178]', '< 4.30'),
  ('CC(=O)N[C@@H](CCN)C(=O)NCCCCCC(=O)N[C@H](C(=O)N[C@@H](CO)C(=O)N[C@@H](Cc1ccccc1)C(=O)N[C@]1(C)CCCCCCC=CCCC[C@@](C)(C(=O)N[C@@H](CCC(=O)O)C(=O)N[C@@H](CC(N)=O)C(=O)N[C@@H](Cc2ccccc2)C(N)=O)NC(=O)[C@H](CC(C)C)NC(=O)[C@H](CC(C)C)NC(=O)[C@H](C)NC(=O)[C@H](Cc2c[nH]c3ccccc23)NC(=O)[C@H](Cc2ccc(O)cc2)NC(=O)[C@H](CCC(=O)O)NC1=O)[C@@H](C)O [MP-666]', '< 4.30');

Here is another compound to look at.
Query string: Bench note: what pEC50 did CC(=O)N[C@@H](CCCCN)C(=O)N[C@@H](CCCCN)C(=O)N[C@H](C(=O)N[C@@H](CO)C(=O)N[C@@H](Cc1ccccc1)C(=O)N[C@]1(C)CCCCCCC=CCCC[C@@](C)(C(=O)N[C@@H](CCC(=O)O)C(N)=O)NC(=O)[C@H](CC2CCC2)NC(=O)[C@H](CC(C)C)NC(=O)[C@H](C)NC(=O)[C@H](Cc2c[nH]c3ccccc23)NC(=O)[C@H](Cc2ccc(O)cc2)NC(=O)[C@H](CCC(=O)O)NC1=O)[C@@H](C)O [MP-157] (Ac-KKTSF[R8]EYWAL[Cba][S5]E-NH2; staple 6-13) show?
Result string: < 4.30
